Test system: intracellular MRSA; further: test concentration or dose not given here
Format: cell-based, Staphylococcus aureus
Settings: PKIS compound screen, MRSA-infected HeLa cells, replicate 1
endpoint_name: z-scoreMRSA+ rep 1
Kindly provide the number alone.

Worked cases, answers included:
compound	z-scoreMRSA+ rep 1
Fc1cc(Cl)ccc1Nc1ccnc2cc(-c3ccc(CN4CCOCC4)o3)ccc12 [GW560109X]	-1.22
CCn1c(-c2nonc2N)nc2c(C#CC(C)(C)O)nc(OC[C@@H](N)c3ccccc3)cc21 [GSK938890A]	-1.60
Cc1nn2c(=O)cc(N3CCOCC3)nc2n1Cc1cccc(Cl)c1Cl [GSK2342769A]	-2.16

Now consider the entry below.
// query Tell me the measured z-scoreMRSA+ rep 1 of COc1cccc(NC(=O)NC2CCN(c3ccnc(Nc4cc(OC)c(OC)c(OC)c4)n3)C2)c1 (stereo not shown) [GSK1379763A] , please.
// result -1.54
